molecular target: Full length activated FXIIa (α‐FXIIa) (UniProt P00748)
Sequence (P00748 20-615): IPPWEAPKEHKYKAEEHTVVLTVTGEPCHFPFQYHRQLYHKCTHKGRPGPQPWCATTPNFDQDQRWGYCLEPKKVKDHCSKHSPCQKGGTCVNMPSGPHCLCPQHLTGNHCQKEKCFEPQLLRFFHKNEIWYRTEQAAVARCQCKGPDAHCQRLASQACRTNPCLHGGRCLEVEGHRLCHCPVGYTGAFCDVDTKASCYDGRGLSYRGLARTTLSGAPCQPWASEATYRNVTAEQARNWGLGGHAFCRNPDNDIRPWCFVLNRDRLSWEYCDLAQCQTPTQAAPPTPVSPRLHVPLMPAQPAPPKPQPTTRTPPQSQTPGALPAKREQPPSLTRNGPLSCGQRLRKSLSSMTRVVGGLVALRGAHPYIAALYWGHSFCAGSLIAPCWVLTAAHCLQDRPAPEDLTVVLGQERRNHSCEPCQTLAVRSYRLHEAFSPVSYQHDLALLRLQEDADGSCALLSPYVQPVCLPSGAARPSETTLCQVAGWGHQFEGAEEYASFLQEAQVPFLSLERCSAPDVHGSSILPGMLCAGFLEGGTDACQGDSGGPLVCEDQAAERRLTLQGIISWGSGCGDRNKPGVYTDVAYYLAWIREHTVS
Answer each item with its documented pIC50 of inhibition of α‐FXIIa enzymatic activity (S‐2302 cleavage).

Some binders with known pIC50 of inhibition of α‐FXIIa enzymatic activity (S‐2302 cleavage) results, for comparison:
binder: RWYVTSRTAGIGPRLPWPELKRR [CTI(21–43) synthetic peptide]
measuredResult: 3.34

binder: RWYVTSRTAGIGPRLPWPELKR [CTI(21–42) synthetic peptide]
measuredResult: 3.7

binder: YVTSRTAGIGPRLPWPELKRR [CTI(23–43) synthetic peptide]
measuredResult: 2.94

Pending binder:
For the binder shown here, CRWYVTSRTAGIGPRLPWPELKRRC [CTI(20–44) synthetic peptide] , give the reported pIC50 of inhibition of α‐FXIIa enzymatic activity (S‐2302 cleavage). 3.54

These measurements were taken from paper PMC5638086.
